- Procedure summary: Bioavailability testing, IP treatment (whole blood, LC/MS)
- Type: in vivo
- Measurement parameters: mouse, in vivo, 0.793 mg/Kg, male CD-1 mice
Property name: Tmax (min)
Numbers only; they are read as min.

compound="CC(C)(C)n1nc(-c2cccc3ccccc23)c2c(N)ncnc21 [1-Na-PP1 (Control)]" experimental_result=4.98

## Task Looking for the measured Tmax of CC(C)(C)n1nc(Cc2cccc3ccccc23)c2c(N)ncnc21 [1-NM-PP1 (Control)] , can you help?
## Result 4.98

----------
- Procedure summary: Bioavailability testing, IV treatment (whole blood, LC/MS)
- Format: in vivo
- Measurement parameters: mouse, in vivo, 0.793 mg/Kg, male CD-1 mice, read-out: Vdss
Property name: Vd (L/kg)
Numbers only; they are read as L/kg.

## Task Looking for the measured Vd of CC(C)(C)n1nc(Cc2cccc3ccccc23)c2c(N)ncnc21 [1-NM-PP1 (Control)] , can you help?
## Result 4.1

----------
# half-life values compiled below
- Procedure summary: Bioavailability testing, IP treatment (whole blood, LC/MS)
- Format: in vivo
- Measurement parameters: mouse, in vivo, 0.793 mg/Kg, male CD-1 mice, read-out: T½ (converted)
Numbers only; they are read as h.

molecule="CC(C)(C)n1nc(Cc2cccc3ccccc23)c2c(N)ncnc21 [1-NM-PP1 (Control)]" property_name=half-life experimental_result=1.42

Turning now to a further record.
## Task Looking for the measured half-life of CC(C)(C)n1nc(-c2cccc3ccccc23)c2c(N)ncnc21 [1-Na-PP1 (Control)] , can you help?
## Result 1.51

----------
- Procedure summary: Bioavailability testing, IV treatment (whole blood, LC/MS)
- Type: in vivo
- Measurement parameters: mouse, in vivo, 0.269 mg/Kg, male CD-1 mice
Property name: clearance (mL/min/kg)
Numbers only; they are read as mL/min/kg.

## Task Looking for the measured clearance of CC(C)(C)n1nc(-c2cccc3ccccc23)c2c(N)ncnc21 [1-Na-PP1 (Control)] , can you help?
## Result 133

----------
- Procedure summary: Bioavailability testing, IV treatment (whole blood, LC/MS)
- Type: in vivo
- Measurement parameters: mouse, in vivo, 0.793 mg/Kg, male CD-1 mice
Property name: clearance (mL/min/kg)
Numbers only; they are read as mL/min/kg.

## Task Looking for the measured clearance of CC(C)(C)n1nc(Cc2cccc3ccccc23)c2c(N)ncnc21 [1-NM-PP1 (Control)] , can you help?
## Result 130

These entries and their values trace back to patent US20030180924A1.
